// provenance: patent US20120135923A1

Molecular target: hMC1-R (human) (UniProt Q01726)
Sequence (Q01726 whole entry): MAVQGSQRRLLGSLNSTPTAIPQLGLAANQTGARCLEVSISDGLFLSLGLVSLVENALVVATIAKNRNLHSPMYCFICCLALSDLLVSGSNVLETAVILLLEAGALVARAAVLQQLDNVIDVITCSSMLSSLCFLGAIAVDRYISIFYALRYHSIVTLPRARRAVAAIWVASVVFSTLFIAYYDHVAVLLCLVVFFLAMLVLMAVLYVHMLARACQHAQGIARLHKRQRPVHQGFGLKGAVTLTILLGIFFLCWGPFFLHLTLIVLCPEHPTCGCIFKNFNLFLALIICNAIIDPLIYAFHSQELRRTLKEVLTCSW
Assay: cell-based or functional assay
Bridge positions count the residues as written; N and C are the ends. Square brackets hold non-standard residues; d marks the D form. Ends that are not written are not given here. Bip = N[C@@H](Cc1ccc(-c2ccccc2)cc1)C(=O)O; 1Nal = N[C@@H](Cc1cccc2ccccc12)C(=O)O; d2Nal = N[C@H](Cc1ccc2ccccc2c1)C(=O)O; hArg = N=C(N)NCCCC[C@H](N)C(=O)O; Pen = CC(C)(S)[C@H](N)C(=O)O; Nle = CCCC[C@H](N)C(=O)O; GABA = NCCCC(=O)O; βAla = NCCC(=O)O
Readout Label: cAMP EC50 (nM)
Give the quantity in nM, number only.

Query string: Return cAMP EC50 for the following binder: [Nle]CH[dF]RW[GABA]C-NH2 (disulfide 2-8) [Nle-c(Cys-His-D-Phe-Arg-Trp-Gaba-Cys)-NH2]
Result string: 0.37

Query string: Return cAMP EC50 for the following binder: Ac-RCH[dF]RW[GABA][Pen]-NH2 (disulfide 2-8; SMILES CC(=O)N[C@@H](CCCNC(=N)N)C(=O)N[C@H]1CSSC(C)(C)[C@@H](C(N)=O)NC(=O)CCCNC(=O)[C@H](Cc2c[nH]c3ccccc23)NC(=O)[C@H](CCCNC(=N)N)NC(=O)[C@@H](Cc2ccccc2)NC(=O)[C@H](Cc2c[nH]cn2)NC1=O) [Ac-Arg-c(Cys-His-D-Phe-Arg-Trp-Gaba-Pen)-NH2]
Result string: 4.23

Query string: Return cAMP EC50 for the following binder: [dF]CH[d(Et)Tyr][hArg]W[βAla][dC]T-NH2 (disulfide 2-8) [D-Phe-c(Cys-His-D-(Et)Tyr-hArg-Trp-β-Ala-D-Cys)-Thr-NH2]
Result string: 0.345

Query string: Return cAMP EC50 for the following binder: [dF]CH[d(Et)Tyr][hArg][Bip][βAla][dC]T-NH2 (disulfide 2-8) [D-Phe-c(Cys-His-D-(Et)Tyr-hArg-Bip-β-Ala-D-Cys)-Thr-NH2]
Result string: 0.685

Query string: Return cAMP EC50 for the following binder: [dF]CH[d(Et)Tyr]RW[βAla][dC]T-NH2 (disulfide 2-8) [D-Phe-c(Cys-His-D-(Et)Tyr-Arg-Trp-β-Ala-D-Cys)-Thr-NH2]
Result string: 0.35

Query string: Return cAMP EC50 for the following binder: Ac-[Nle]C[dA]H[d2Nal]R[1Nal]C-NH2 (disulfide 2-8; SMILES CCCC[C@H](NC(C)=O)C(=O)N[C@H]1CSSC[C@@H](C(N)=O)NC(=O)[C@H](Cc2cccc3ccccc23)NC(=O)[C@H](CCCNC(=N)N)NC(=O)[C@@H](Cc2ccc3ccccc3c2)NC(=O)[C@H](Cc2c[nH]cn2)NC(=O)[C@@H](C)NC1=O) [Ac-Nle-c(Cys-D-Ala-His-D-2-Nal-Arg-1-Nal-Cys)-NH2]
Result string: 383
